tested on: PPARg homodimer (NR concentration 180 nM); assay: PBM binding z-score (relative to random genomic background probes); higher = stronger binding; sequences stand for … in GC…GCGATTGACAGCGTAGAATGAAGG
Assay Metric: PBM binding z-score

1. TAGCCTAGGTCATTCAGGGGCTAGTATAGAAAGC
1.3
2. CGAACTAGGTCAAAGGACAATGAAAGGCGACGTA
1.69
3. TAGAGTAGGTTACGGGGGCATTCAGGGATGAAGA
2.22
4. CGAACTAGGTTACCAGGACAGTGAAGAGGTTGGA
0.829
5. CATACACGGTCAGCTAGGCCAGAGTAGGGACGGC
0.0796
6. CGTCCAAGGTCACCAGGTCAGTGAAAGCGACGTG
5.06
7. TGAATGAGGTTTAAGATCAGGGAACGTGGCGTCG
-0.165
8. TTACCAAGGTCAGCTGAGGTCGTTGATCCAACTC
1.8
9. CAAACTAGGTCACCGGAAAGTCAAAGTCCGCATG
2.67
10. ATATGTAGGTTAGGGCCATTCAGAAAGTAGGGAA
1.54
11. CCGAGTAGGTTCCGAGGGGGCATTCAGTGCGAAT
1.1
12. CGTCCAAGGTCAAAGGTCAGCGAAGAGATGACGG
4.17
13. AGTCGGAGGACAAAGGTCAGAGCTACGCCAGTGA
3.93
14. TCGAGGAGGTTACGGGGGCATTCAGGGATGAAGA
2.53
15. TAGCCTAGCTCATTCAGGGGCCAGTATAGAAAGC
-1.77
16. ATATGTAGGTTAGGGTAATTCAGAAAGTAGGGAA
2.03
17. TCTAGCTGGTCAAAGGTCACACACTCGAAATGCG
4.18
18. ATATGGAGGTTAAGGGTCATTCAGGTTGGTTCGC
4.57
19. CGTCCAAGGTCAGCAGGTCAGAGAAAGCGACGTG
6.44
20. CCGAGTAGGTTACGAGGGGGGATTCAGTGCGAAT
2
21. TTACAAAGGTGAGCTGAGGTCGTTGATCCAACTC
1.41
22. TCAGATAGGTAAAGGTGAAAGTCGAACGATATGA
1.31
23. TCTCGGAGGACACGAAAGGTGAGAGCTCGACATC
0.673
24. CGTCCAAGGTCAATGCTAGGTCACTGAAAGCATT
8.59
25. ATCTCTAGGTAACAAGGTCAGTGAAAGAGAGGAC
2.4
26. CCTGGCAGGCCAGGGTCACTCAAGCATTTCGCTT
0.712
27. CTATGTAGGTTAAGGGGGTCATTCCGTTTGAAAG
3.57
28. ATATGTAGGTTAAGGTCATTCAGAAAGTAGGGAA
3.37
29. CCGAGTAGGTTACGAGGGGGCATTCAGTGCGAAT
2.04
30. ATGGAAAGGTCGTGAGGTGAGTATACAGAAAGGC
2.23
31. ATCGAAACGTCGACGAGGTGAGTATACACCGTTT
-0.489
32. CTTTGTAGGTTAAGGGGGTCATTCAGTTTGAAAG
3.76
33. TCGAGTAGCTTACGGGGGCATTCAGGGATGAAGA
0.346
34. ATATGTAGGTCAGGGTCATTCAGAAAGTAGGGAA
3.22
35. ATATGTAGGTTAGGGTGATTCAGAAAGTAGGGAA
2.93
36. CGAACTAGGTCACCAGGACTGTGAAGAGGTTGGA
3.94
